From: patent US8080529B2

Tested on: neutrophils
MEASUREMENT_NOTES: Lung neutrophilia induced by bacterial lipopolysaccharide in male BALB/cJ mice: cells in BALF and lung tissue
Assay type: in vivo
REPORTED_CONDITIONS: 5 mg i.p.; 24 hours after LPS
Returns one of MET or NOT MET; MET when % decrease of total cell no. in BALF is >= 80%.

Solved entries (count: 4):
>  <COMPOUND>
CC[C@H]1OC(=O)[C@H](C)[C@@H](O[C@H]2C[C@@](C)(OC)[C@@H](OC(=O)CCN(CC)CC)[C@H](C)O2)[C@H](C)[C@@H](O[C@@H]2O[C@H](C)C[C@H](NC)[C@H]2O)[C@](C)(OC)C[C@@H](C)C(=O)N[C@H](C)[C@@H](O)[C@]1(C)O [Example 54]

>  <LABEL_CLASS>
MET

$$$$
>  <COMPOUND>
CC[C@H]1OC(=O)[C@H](C)[C@@H](O[C@H]2C[C@@](C)(OC)[C@@H](O)[C@H](C)O2)[C@H](C)[C@@H](O[C@@H]2O[C@H](C)C[C@H](N(C)C)[C@H]2O)[C@](C)(O)C[C@@H](C)CN(C)[C@H](C)[C@@H](O)[C@]1(C)O [azithromycin, reference compound]

>  <LABEL_CLASS>
NOT MET

$$$$
>  <COMPOUND>
CC[C@H]1OC(=O)[C@H](C)[C@@H](O[C@H]2C[C@@](C)(OC)[C@@H](O)[C@H](C)O2)[C@H](C)[C@@H](O[C@@H]2O[C@H](C)C[C@H](N(C)C)[C@H]2O)[C@](C)(OC)C[C@@H](C)C(=O)[C@H](C)[C@@H](O)[C@]1(C)O [clarithromycin, reference compound]

>  <LABEL_CLASS>
NOT MET

$$$$
>  <COMPOUND>
CC[C@H]1OC(=O)[C@H](C)[C@@H](O[C@H]2C[C@@](C)(OC)[C@@H](OC(=O)CCN(C)C)[C@H](C)O2)[C@H](C)[C@@H](O[C@@H]2O[C@H](C)C[C@H](N(C)C)[C@H]2O)[C@](C)(OC)C[C@@H](C)C(=O)N[C@H](C)[C@@H](O)[C@]1(C)O [Example 12]

>  <LABEL_CLASS>
MET

$$$$

Here is the next item to consider.
Query block: Decide: % decrease of total cell no. in BALF of CCC1OC(=O)C(C)C(OC2CC(C)(OC)C(OC(=O)CCN(CC)CC)C(C)O2)C(C)C(OC2OC(C)CC(N(C)C)C2O)C(C)(OC)CC(C)C(=O)NC(C)C(O)C1(C)O (stereo not drawn) [Example 8] >= 80%?
Result block: MET

* * *

Would you mind telling me the reported Percentage of inhibition of cell growth of each entry?
Tested on: Hep G2
MEASUREMENT_NOTES: Cytotoxicity assay (MTT), Hep G2 cell line
Type: cell-based
REPORTED_CONDITIONS: 12.5 μM, 24 h
Method: To determine whether the anti-inflammatory activity of the test compounds was due to observed inhibition of cytokine production and inhibition of proliferation in vitro, and was not a consequence of cellular cytotoxicity, measurement of succinate dehydrogenase activity in living cells was performed. […] The amount of MTT-Formazan produced was determined using a spectrophotometer at 490 nm (Mosmann, J. Immunol. Methods, 1983, 65: 55-63). […]
Answers are plain numbers, in %.

Solved cases below.
>  <COMPOUND_STRUCTURE>
CC[C@H]1OC(=O)[C@H](C)[C@@H](O[C@H]2C[C@@](C)(OC)[C@@H](OC(=O)CCN3CCN(CCOCCO)CC3)[C@H](C)O2)[C@H](C)[C@@H](O[C@@H]2O[C@H](C)C[C@H](N(C)C)[C@H]2O)[C@](C)(OC)C[C@@H](C)C(=O)N[C@H](C)[C@@H](O)[C@]1(C)O

>  <STUDY_TARGET>
Hep G2

>  <RESULT_UNITS>
%

>  <ENDPOINT_VALUE>
5

$$$$
>  <COMPOUND_STRUCTURE>
CC[C@H]1OC(=O)[C@H](C)[C@@H](O[C@H]2C[C@@](C)(OC)[C@@H](OC(=O)CCN3CCN(CCN(CC)CC)CC3)[C@H](C)O2)[C@H](C)[C@@H](O[C@@H]2O[C@H](C)C[C@H](N(C)C)[C@H]2O)[C@](C)(OC)C[C@@H](C)C(=O)N[C@H](C)[C@@H](O)[C@]1(C)O

>  <STUDY_TARGET>
Hep G2

>  <RESULT_UNITS>
%

>  <ENDPOINT_VALUE>
0

$$$$
>  <COMPOUND_STRUCTURE>
CC[C@H]1OC(=O)[C@H](C)[C@@H](O[C@H]2C[C@@](C)(OC)[C@@H](OC(=O)CCN(CC)CC)[C@H](C)O2)[C@H](C)[C@@H](O[C@@H]2O[C@H](C)C[C@H](N(C)C)[C@H]2O)[C@](C)(O)C[C@@H](C)NC(=O)[C@H](C)[C@@H](O)[C@]1(C)O

>  <STUDY_TARGET>
Hep G2

>  <RESULT_UNITS>
%

>  <ENDPOINT_VALUE>
0

$$$$

Query block: Quick one: Percentage of inhibition of cell growth of CC[C@H]1OC(=O)[C@H](C)[C@@H](O[C@H]2C[C@@](C)(OC)[C@@H](OC(=O)CCN(CC)CC)[C@H](C)O2)[C@H](C)[C@@H](O[C@@H]2O[C@H](C)C[C@H](N(C)C)[C@H]2O)[C@](C)(OC)C[C@@H](C)C(=O)[C@H](C)[C@H]2NC(=O)O[C@@]21C ?
Result block: 4
